// provenance: PubChem BioAssay AID2060896

# System: 941728-121-R-J1-PDC complex spheroid viability
# ASSAY DETAILS: Anticancer human tumor 941728-121-R-J1-PDC patient-derived lung adenocarcinoma cell line growth inhibition [RAS]
# TEST CONDITIONS: second compound 0.1 µM; first compound 0.0316 µM; hits give low values
QUANTITY: viability, T/C (%)
Respond numerically; units are % and should not be typed.

{"COMPOUND": "CC(=O)OC12COC1CC(O)C1(C)C(=O)C(O)C3=C(C)C(OC(=O)C(O)C(NC(=O)OC(C)(C)C)c4ccccc4)CC(O)(C(OC(=O)c4ccccc4)C21)C3(C)C (configuration not stated) + C=CC(=O)N1CCN(c2nc(OCC3CCCN3C)nc3c(F)c(-c4nc(N)cc(C)c4C(F)(F)F)c(Cl)cc23)C(C)C1", "viability, T/C (%)": 14.1}

In the following, a different compound is considered.
State its viability, T/C for this compound: C[C@@H](NC(=O)c1ncnc(N)c1Cl)c1ncc(C(=O)Nc2cc(C(F)(F)F)c(Cl)cn2)s1 + C#Cc1c(F)ccc2cc(O)cc(-c3ncc4c(N5CC6CCC(C5)N6)nc(OCC56CCCN5CC(F)C6)nc4c3F)c12
102

* * *

# Tested on: 941728-121-R-J1-PDC complex spheroid viability
# ASSAY DETAILS: Anticancer human tumor 941728-121-R-J1-PDC cell line growth inhibition [RAS];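 further: spheroids exposed to compounds for 7 days before readout; 100% = DMSO vehicle control viability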
# TEST CONDITIONS: second compound 0.316 µM; first compound 0.03 µM; hits give low values
QUANTITY: viability, T/C (%)
Respond numerically; units are % and should not be typed.

Here's what some known entries look like.
{"COMPOUND": "CCc1c2c(nc3ccc(O)cc13)-c1cc3c(c(=O)n1C2)COC(=O)[C@]3(O)CC + C=CC(=O)N1CCN(c2nc(OCC3CCCN3C)nc3c(F)c(-c4nc(N)cc(C)c4C(F)(F)F)c(Cl)cc23)C(C)C1", "U": "%", "viability, T/C": 12.2}
{"COMPOUND": "CCc1c2c(nc3ccc(O)cc13)-c1cc3c(c(=O)n1C2)COC(=O)[C@]3(O)CC + C#Cc1c(F)ccc2cc(O)cc(-c3ncc4c(N5CC6CCC(C5)N6)nc(OCC56CCCN5CC(F)C6)nc4c3F)c12", "U": "%", "viability, T/C": 42.6}
{"COMPOUND": "CC1(C)CCC(Nc2ncc(C(F)(F)F)c(-c3c[nH]c4c(P(C)(C)=O)c(C#N)ccc34)n2)CN1 (centres undefined) + C=CC(=O)N1CCN(c2nc(OCC3CCCN3C)nc3c(F)c(-c4nc(N)cc(C)c4C(F)(F)F)c(Cl)cc23)C(C)C1", "U": "%", "viability, T/C": 17.7}

State its viability, T/C for this compound: CC1(C)CCC(Nc2ncc(C(F)(F)F)c(-c3c[nH]c4c(P(C)(C)=O)c(C#N)ccc34)n2)CN1 (centres undefined) + C#Cc1c(F)ccc2cc(O)cc(-c3ncc4c(N5CC6CCC(C5)N6)nc(OCC56CCCN5CC(F)C6)nc4c3F)c12
45.4

* * *

# System: 941728-121-R-J1-PDC complex spheroid viability
# ASSAY DETAILS: Anticancer human tumor 941728-121-R-J1-PDC cell line growth inhibition [RAS];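 further: spheroids exposed to compounds for 7 days before readout; 100% = DMSO vehicle control viability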
# TEST CONDITIONS: second compound 0.316 µM; first compound 10 µM; hits give low values
QUANTITY: viability, T/C (%)
Respond numerically; units are % and should not be typed.

{"COMPOUND": "CC(C)NCC(C(=O)N1CCN(c2ncnc3c2C(C)CC3O)CC1)c1ccc(Cl)cc1 (stereo not given) + C#Cc1c(F)ccc2cc(O)cc(-c3ncc4c(N5CC6CCC(C5)N6)nc(OCC56CCCN5CC(F)C6)nc4c3F)c12", "SUBJECT OF TEST": "941728-121-R-J1-PDC complex spheroid viability", "U": "%", "NUMERIC READOUT": 26.9}
{"COMPOUND": "CC(=O)OC12COC1CC(O)C1(C)C(=O)C(O)C3=C(C)C(OC(=O)C(O)C(NC(=O)OC(C)(C)C)c4ccccc4)CC(O)(C(OC(=O)c4ccccc4)C21)C3(C)C (stereo not given) + C=CC(=O)N1CCN(c2nc(OCC3CCCN3C)nc3c(F)c(-c4nc(N)cc(C)c4C(F)(F)F)c(Cl)cc23)C(C)C1", "SUBJECT OF TEST": "941728-121-R-J1-PDC complex spheroid viability", "U": "%", "NUMERIC READOUT": 16.2}
{"COMPOUND": "CCC(CC)c1cc(NC2CCC(N)C2)n2nccc2n1 (stereo not given) + C#Cc1c(F)ccc2cc(O)cc(-c3ncc4c(N5CC6CCC(C5)N6)nc(OCC56CCCN5CC(F)C6)nc4c3F)c12", "SUBJECT OF TEST": "941728-121-R-J1-PDC complex spheroid viability", "U": "%", "NUMERIC READOUT": 29.7}
{"COMPOUND": "CC(Nc1ccc2c(c1)OCCn1cc(N3C(=O)OCC3C(F)F)nc1-2)C(N)=O (stereo not given) + C=CC(=O)N1CCN(c2nc(OCC3CCCN3C)nc3c(F)c(-c4nc(N)cc(C)c4C(F)(F)F)c(Cl)cc23)C(C)C1", "SUBJECT OF TEST": "941728-121-R-J1-PDC complex spheroid viability", "U": "%", "NUMERIC READOUT": 11.6}

Please indicate recorded viability, T/C of CC1(O)CCCC1n1c(=O)c(C(F)F)cc2cnc(NC3CCN(S(C)(=O)=O)CC3)nc21 (stereo not given) + C=CC(=O)N1CCN(c2nc(OCC3CCCN3C)nc3c(F)c(-c4nc(N)cc(C)c4C(F)(F)F)c(Cl)cc23)C(C)C1 measured with 941728-121-R-J1-PDC complex spheroid viability.
28.1
